Target: UniProt Q04206
Sequence (Q04206 whole entry): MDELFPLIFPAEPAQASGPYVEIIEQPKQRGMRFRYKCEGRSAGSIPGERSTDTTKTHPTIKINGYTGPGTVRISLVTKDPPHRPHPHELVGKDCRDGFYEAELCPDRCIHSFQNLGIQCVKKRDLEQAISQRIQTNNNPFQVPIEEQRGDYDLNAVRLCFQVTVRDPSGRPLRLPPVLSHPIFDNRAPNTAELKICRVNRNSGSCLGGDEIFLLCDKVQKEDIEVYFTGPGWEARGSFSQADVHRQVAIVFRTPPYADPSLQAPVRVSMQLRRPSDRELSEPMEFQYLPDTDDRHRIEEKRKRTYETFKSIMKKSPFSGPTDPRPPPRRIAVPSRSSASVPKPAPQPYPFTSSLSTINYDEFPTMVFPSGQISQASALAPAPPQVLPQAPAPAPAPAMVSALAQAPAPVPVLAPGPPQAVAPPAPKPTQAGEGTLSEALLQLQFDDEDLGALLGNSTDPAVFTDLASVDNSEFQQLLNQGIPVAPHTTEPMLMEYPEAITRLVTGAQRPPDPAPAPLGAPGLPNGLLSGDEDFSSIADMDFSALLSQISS
Assay: Inhibition of NF-kappaB p65 in human HeLa cells nuclear extract by chemiluminescent assay
measurementKind: pIC50
Units for pIC50: none; it is -log10 of a concentration expressed in mol/L.

# return recorded pIC50 for input `C=CC(C)(C)c1cc(C(=O)c2c(-c3cc(-c4cc5cc(C(C)(C)C=C)c(O)cc5oc4=O)c(O)cc3O)oc3cc(O)ccc23)c(O)cc1O` 8.22
